target: T1, human CD40 on cells (human, UniProt P25942 21-277); experiment: FACS, CHO-K1/hCD40 cells
T1 construct: whole, on cells; The cell line used is named in each row's assay; also called hCD40; TNFRSF5
T1 sequence (P25942 21-277): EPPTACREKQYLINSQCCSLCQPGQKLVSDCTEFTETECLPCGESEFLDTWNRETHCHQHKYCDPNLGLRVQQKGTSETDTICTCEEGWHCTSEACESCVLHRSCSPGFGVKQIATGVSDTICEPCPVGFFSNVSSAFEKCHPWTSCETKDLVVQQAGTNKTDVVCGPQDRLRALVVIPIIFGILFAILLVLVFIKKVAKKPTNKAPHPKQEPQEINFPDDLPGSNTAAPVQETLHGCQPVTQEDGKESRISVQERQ

[
  {
    "binder": "PR006501 (antibody, human IgG1, kappa, V domains shown, PR003379 variant L:N92Q; human IgG1 L234A, L235A, G237A) VH: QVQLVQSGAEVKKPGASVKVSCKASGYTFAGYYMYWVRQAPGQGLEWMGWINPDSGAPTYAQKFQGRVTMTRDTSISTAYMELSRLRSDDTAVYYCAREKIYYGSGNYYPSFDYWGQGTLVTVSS VL: DIQLTQSPSFLSASVGDRVTITCRASQGISSYLAWYQQKPGKAPKLLIYAASTLQSGVPSRFSGSGSGTEFTLTISSLQPEDFATYYCQQLQSYPWTFGQGTKVEIKR",
    "measurement-unit": "nM",
    "EC50": 5.29
  }
]

These data points were gathered from patent US20250215100A1.
